- Tested on: LOX IMVI melanoma
- assay explanation: NCI tumour cell line growth inhibition, 48 h; in the data active means GI50 below about 0.43 µM; inactive means the rest
Valid outcomes are listed here; reply with one: active, inactive

IN: Which outcome was entered for the compound O=C1NC2C(=CC(O)C(O)C2O)c2cc3c(cc21)OCO3 (configuration not stated) in this test?
OUT: active

IN: Which outcome was entered for the compound "COc1cc2c(cc1Cc1cccc(Cl)c1F)c(=O)c(C(=O)O)cn2[C@@H](CO)C(C)C" in this test?
OUT: inactive

IN: Which outcome was entered for the compound "COc1cc(C(=O)N2CCN(c3ccccc3)CC2)c2ccccc2n1" in this test?
OUT: active

IN: Which outcome was entered for the compound "Clc1ccc(Nc2ccnc(N3CCN(c4ccnc5cc(Cl)ccc45)CC3)n2)cc1" in this test?
OUT: inactive

IN: Which outcome was entered for the compound "Cc1ccc(-c2cc3c4c(nc5ccccc53)C(=O)c3cccnc3-c4n2)cc1" in this test?
OUT: inactive

IN: Which outcome was entered for the compound "COCCNc1ccc2c3c(cccc13)C(=O)N(CCN(C)C)C2=O" in this test?
OUT: inactive

IN: Which outcome was entered for the compound "C[C@@H](NC(=O)/C(C#N)=C/c1ccc([N+](=O)[O-])cc1)c1ccccc1" in this test?
OUT: inactive

IN: Which outcome was entered for the compound "S=C(NCCNC(=S)[S][Sn]([c]1ccccc1)([c]1ccccc1)[c]1ccccc1)[S][Sn]([c]1ccccc1)([c]1ccccc1)[c]1ccccc1" in this test?
OUT: active

IN: Which outcome was entered for the compound "COc1ccc(Nc2cc(C)nc(NCc3ccccc3)n2)cc1" in this test?
OUT: inactive

IN: Which outcome was entered for the compound CC(C)(C)[Si](C)(C)OC1[C@@H](O[Si](C)(C)C(C)(C)C)[C@@H](CNC(=O)NC(=O)CF)O[C@H]1n1cnc2c(NC(=O)Nc3ccccc3)ncnc21 (some centres not stated) in this test?
OUT: inactive

IN: Which outcome was entered for the compound CC[C@@H](C(=O)[C@H](C)[C@H](O)[C@@H](C)[C@H]1O[C@H]([C@@H](CC)C(=O)N(CC)CC)CC[C@H]1C)C1O[C@]2(C=C[C@@H](O)[C@]3(CC[C@@](C)([C@H]4CC[C@](O)(CC)[C@H](C)O4)O3)O2)[C@H](C)C[C@@H]1C (some centres not stated) in this test?
OUT: inactive

IN: Which outcome was entered for the compound O=c1[nH]c(=O)c2cc3cc(C4CC(O)C(CO)O4)ccc3cc2[nH]1 (configuration not stated) in this test?
OUT: inactive

====

- Test system: MCF7 breast
- assay explanation: NCI tumour cell line growth inhibition, 48 h; in the data active means GI50 below about 0.43 µM; inactive means the rest
Valid outcomes are listed here; reply with one: active, inactive

IN: Which outcome was entered for the compound CCN1C(=O)N(CC)C2C1NN=c1s/c(=C\c3ccco3)c(=O)n12 (stereo not given) in this test?
OUT: active

IN: Which outcome was entered for the compound "S=C(NCCNC(=S)[S][Sn]([c]1ccccc1)([c]1ccccc1)[c]1ccccc1)[S][Sn]([c]1ccccc1)([c]1ccccc1)[c]1ccccc1" in this test?
OUT: active

IN: Which outcome was entered for the compound O=C([O][Hg][CH2]C1OCCOC1[CH2][Hg][O]C(=O)c1ccccc1)c1ccccc1 (stereo not given) in this test?
OUT: inactive

IN: Which outcome was entered for the compound "CCCCCCCCCCCCSC1=C(Cl)C(=O)C(OC)=C(OC)C1=O" in this test?
OUT: active

IN: Which outcome was entered for the compound "CCCc1cc(=O)n2c(C(=O)Nc3cccc(C(=O)OCC)c3)c(C(=O)Nc3ccc(F)cc3)sc2n1" in this test?
OUT: inactive
